Values from paper PMC3322975

target: Kv7.2/7.3 M-channel (Homo sapiens, UniProt O43525+O43526); assay: single-channel recording, excised inside-out patch
Sequence (O43526 whole entry): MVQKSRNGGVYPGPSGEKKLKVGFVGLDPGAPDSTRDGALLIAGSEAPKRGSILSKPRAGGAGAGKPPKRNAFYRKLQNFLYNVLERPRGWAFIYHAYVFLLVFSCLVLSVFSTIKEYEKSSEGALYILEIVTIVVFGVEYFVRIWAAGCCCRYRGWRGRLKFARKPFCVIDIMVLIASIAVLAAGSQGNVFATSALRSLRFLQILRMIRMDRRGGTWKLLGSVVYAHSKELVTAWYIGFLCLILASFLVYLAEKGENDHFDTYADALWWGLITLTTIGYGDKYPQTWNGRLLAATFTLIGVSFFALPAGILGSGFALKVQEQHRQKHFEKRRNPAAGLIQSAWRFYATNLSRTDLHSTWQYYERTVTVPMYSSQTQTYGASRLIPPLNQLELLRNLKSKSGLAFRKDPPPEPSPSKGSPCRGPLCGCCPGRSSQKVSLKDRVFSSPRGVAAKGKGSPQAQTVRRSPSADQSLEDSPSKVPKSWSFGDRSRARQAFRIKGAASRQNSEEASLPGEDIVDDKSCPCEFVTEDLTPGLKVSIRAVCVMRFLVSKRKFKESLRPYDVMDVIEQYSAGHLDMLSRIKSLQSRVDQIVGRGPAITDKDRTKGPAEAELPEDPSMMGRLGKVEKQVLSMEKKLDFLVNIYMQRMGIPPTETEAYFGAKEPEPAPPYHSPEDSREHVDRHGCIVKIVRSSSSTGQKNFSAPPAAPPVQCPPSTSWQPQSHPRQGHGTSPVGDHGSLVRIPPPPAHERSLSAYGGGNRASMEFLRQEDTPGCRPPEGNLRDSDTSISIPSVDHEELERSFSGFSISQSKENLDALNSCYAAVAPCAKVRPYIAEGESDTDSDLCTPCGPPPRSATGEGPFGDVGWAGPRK
Sequence (O43525 whole entry): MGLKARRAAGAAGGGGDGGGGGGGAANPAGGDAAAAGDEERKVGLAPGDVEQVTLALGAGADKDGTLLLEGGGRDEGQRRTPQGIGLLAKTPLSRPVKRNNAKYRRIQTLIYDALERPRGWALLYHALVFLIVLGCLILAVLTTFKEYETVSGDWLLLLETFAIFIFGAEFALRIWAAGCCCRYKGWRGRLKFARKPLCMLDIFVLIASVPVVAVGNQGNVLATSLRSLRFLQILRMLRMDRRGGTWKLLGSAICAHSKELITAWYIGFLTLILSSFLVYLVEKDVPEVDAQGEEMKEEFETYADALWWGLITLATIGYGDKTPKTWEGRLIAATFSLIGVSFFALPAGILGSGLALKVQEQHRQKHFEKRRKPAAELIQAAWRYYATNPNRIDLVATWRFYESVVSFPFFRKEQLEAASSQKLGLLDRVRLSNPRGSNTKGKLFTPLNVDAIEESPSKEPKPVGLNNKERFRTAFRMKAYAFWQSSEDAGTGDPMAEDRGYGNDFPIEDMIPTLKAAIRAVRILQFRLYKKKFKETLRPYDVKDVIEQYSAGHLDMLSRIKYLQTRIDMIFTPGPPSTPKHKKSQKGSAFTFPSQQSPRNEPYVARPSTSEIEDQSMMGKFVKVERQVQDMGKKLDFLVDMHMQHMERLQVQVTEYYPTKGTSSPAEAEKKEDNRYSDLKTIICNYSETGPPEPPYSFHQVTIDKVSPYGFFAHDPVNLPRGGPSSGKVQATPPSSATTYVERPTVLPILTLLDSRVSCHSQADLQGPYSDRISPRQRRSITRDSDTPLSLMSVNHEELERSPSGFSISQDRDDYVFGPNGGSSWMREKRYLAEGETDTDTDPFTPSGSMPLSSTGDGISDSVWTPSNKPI

{"molecule": "CCCCCCCC/C=C\\CCCCCCCC(=O)OC[C@@H](O)COP(=O)(O)O [LPA]", "EC50 / nM": 1500}
{"molecule": "CCCCCCCC(=O)OC[C@H](COP(=O)(O)O[C@@H]1[C@H](O)[C@H](O)[C@@H](OP(=O)(O)O)[C@H](OP(=O)(O)O)[C@H]1O)OC(=O)CCCCCCC [diC8PI(4,5)P2]", "EC50 / nM": 1100}
{"molecule": "CCCCCCCCCCCCC/C=C/[C@@H](O)[C@@H](N)COP(=O)(O)O [S-1-P]", "EC50 / nM": 3200}
{"molecule": "CCCCCCCCc1ccc(CCC(N)(CO)COP(=O)(O)O)cc1 (stereo not drawn) [FTY720-P]", "EC50 / nM": 500}
{"molecule": "CCCCCCCC(=O)OC[C@H](COP(=O)(O)O[C@H]1[C@H](O)[C@@H](O)[C@H](OP(=O)(O)O)[C@@H](O)[C@H]1O)OC(=O)CCCCCCC [diC8PI(4)P]", "EC50 / nM": 1700}
{"molecule": "CCCCCCCC(=O)OC[C@H](COP(=O)(O)O[C@H]1[C@H](O)[C@@H](OP(=O)(O)O)[C@H](OP(=O)(O)O)[C@@H](OP(=O)(O)O)[C@H]1O)OC(=O)CCCCCCC [diC8PI(3,4,5)P3]", "EC50 / nM": 1100}
